test: in vitro; settings: rat, gh3-tre-luc cells, AC50 (uM) modified / 1000
Structures can show the parent of a compound that is named as a salt.
assay-endpoint: CC50 at 24 h

{"compound": "C=C1CC[C@H]2C[C@@H]1C2(C)C [beta-Pinene]", "measured-value": "> 90 µM"}
{"compound": "CCCCCCCCCC=CCC1CC(=O)OC1=O (stereo not drawn) [(2-Dodecenyl)succinic anhydride]", "measured-value": "> 90 µM"}
{"compound": "OC[C@H]1O[C@@H](n2cnc3c2NC=NC[C@H]3O)C[C@@H]1O [Pentostatin]", "measured-value": "> 50 µM"}
{"compound": "Cc1cc(O)c2c(c1)O[C@@]1(C)CC[C@H]3C(C)(C)CCC[C@]34CO[C@@H]2[C@H]41 [Siccanin]", "measured-value": "15.9 µM"}
{"compound": "CCOc1ccccc1OCCN[C@H](C)Cc1ccc(OC)c(S(N)(=O)=O)c1 [Tamsulosin hydrochloride]", "measured-value": "> 50 µM"}
{"compound": "C=CCOCC(O)CS(=O)(=O)O (stereo not drawn)", "measured-value": "> 90 µM"}
{"compound": "CC(=O)OC(C)C[N+](C)(C)C (stereo not drawn) [Methacholine chloride]", "measured-value": "> 20 µM"}
{"compound": "CC(=O)O[C@H]1C[C@@H]2CC[C@@H]3[C@H](CC[C@@]4(C)[C@H]3C[C@H]([N+]3(C)CCCCC3)[C@@H]4OC(C)=O)[C@@]2(C)C[C@@H]1[N+]1(C)CCCCC1 [Pancuronium bromide]", "measured-value": "> 50 µM"}
{"compound": "CN(C)CC[C@@H](c1ccc(Br)cc1)c1ccccn1 [Dexbrompheniramine maleate]", "measured-value": "26.6 µM"}
{"compound": "CCOC(=O)Oc1c(OC)cc(C(=O)O[C@@H]2C[C@@H]3CN4CCc5c([nH]c6cc(OC)ccc56)[C@H]4C[C@@H]3[C@H](C(=O)OC)[C@H]2OC)cc1OC [Syrosingopine]", "measured-value": "> 20 µM"}

Each of the following entries comes with a recorded value; kindly state CC50 at 24 h for each.
1. C=C(C)C(=O)OC(C)CO (stereo not drawn) [Hydroxypropyl methacrylate]
2. C[n+]1cc2c3c(ccc2c2ccc4cc5c(cc4c21)OCO5)OCO3 [Sanguinarine]

Given back:
1. > 90 µM
2. 2.9 µM

Quick request: CC50 at 24 h for each listed item, please.
1. C=CC1(C)OC(=O)N(c2cc(Cl)cc(Cl)c2)C1=O (stereo not drawn) [Vinclozolin]
2. C=CCSCC1Nc2cc(Cl)c(S(N)(=O)=O)cc2S(=O)(=O)N1 (stereo not drawn) [Althiazide]
3. OCCCCCO [1,5-Pentanediol]
4. O=C(CBr)c1ccc(O)cc1 [2-Bromo-4-hydroxyacetophenone]
5. CC(C)Cc1ccc(CC(=O)O)cc1 [Ibufenac]
6. Oc1cccc(O)c1 [Resorcinol]

Given back:
1: > 90 µM; 2: > 50 µM; 3: > 100 µM; 4: > 90 µM; 5: > 50 µM; 6: > 90 µM

###

assay: in vitro; conditions: rat, gh3-tre-luc cells, AC50 (uM) modified / 1000, Tox21_110001=Tox21_111056; viability, 1 nM T3 present, 24 h
assay-endpoint: CC50 at 24 h

Asked: // lookup CC50 at 24 h for C[C@]12CCC(=O)C[C@@H]1CC[C@@H]1[C@@H]2CC[C@]2(C)[C@@H](O)CC[C@@H]12 [5alpha-Dihydrotestosterone]
Given back: > 50 µM

###

experiment: in vitro; conditions: rat, gh3-tre-luc cells, AC50 (uM) modified / 1000, Tox21_110001=Tox21_112818; viability, 1 nM T3 present, 24 h
assay-endpoint: CC50 at 24 h

Asked: Suppose we examine the compound C[C@H]1N=C(N)O[C@H]1c1ccccc1 (stereo in doubt) ; what CC50 at 24 h value has been reported?
Given back: > 90 µM

###

assay: in vitro; details: rat, gh3-tre-luc cells, AC50 (uM) modified / 1000, Tox21_110001=Tox21_303507; viability, 1 nM T3 present, 24 h
assay-endpoint: CC50 at 24 h

Asked: Looking for the measured CC50 at 24 h of C=CCO , can you help?
Given back: > 90 µM

###

test system: GH3-TRE-Luc cell line; conditions: read-out: AC50 (uM) modified / 1000; Tox21_110001=Tox21_110296; viability, 1 nM T3 present, 24 h
assay-endpoint: CC50 (µM)
One number for each entry, in µM.

Asked: Sample CC(C)(C)c1ccc(C(O)CCCN2CCC(C(O)(c3ccccc3)c3ccccc3)CC2)cc1 (stereo not shown) — what was its CC50?
Given back: 5.45

###

experiment: in vitro; conditions: rat, gh3-tre-luc cells, AC50 (uM) modified / 1000, Tox21_110001=Tox21_112864; viability, 1 nM T3 present, 24 h
Where a name gives a salt, the structure may show the parent alone.
assay-endpoint: CC50 at 24 h

Asked: I have this compound here, CCN[C@@H](C)Cc1cccc(C(F)(F)F)c1 [Dexfenfluramine hydrochloride] , and I need its recorded CC50 at 24 h.
Given back: > 90 µM

###

assay: in vitro; conditions: rat, gh3-tre-luc cells, AC50 (uM) modified / 1000, Tox21_110001=Tox21_200260; viability, 1 nM T3 present, 24 h
assay-endpoint: CC50 at 24 h

Asked: State the recorded CC50 at 24 h for this entry: Cc1ccc2cc(C)ccc2c1 [2,6-Dimethylnaphthalene]
Given back: > 90 µM

###

tested on: GH3-TRE-Luc cell line; settings: read-out: AC50 (uM) modified / 1000; Tox21_110001=Tox21_201342; viability, 1 nM T3 present, 24 h
assay-endpoint: CC50

Asked: Query (molecule): CCCCC(CC)COC(=O)CC(C(=O)OCC(CC)CCCC)S(=O)(=O)O (stereo not shown) [Docusate sodium] ; field requested: CC50
Given back: 64.9 µM

###

assay: in vitro; conditions: rat, gh3-tre-luc cells, AC50 (uM) modified / 1000, Tox21_110001=Tox21_201417; viability, 1 nM T3 present, 24 h
assay-endpoint: CC50 at 24 h

Asked: What measured CC50 at 24 h goes with CC(Br)C(=O)O (stereo not shown) [2-Bromopropionic acid] ?
Given back: > 90 µM

###

system: GH3-TRE-Luc cell line; conditions: read-out: AC50 (uM) modified / 1000; Tox21_110001=Tox21_110888; viability, 1 nM T3 present, 24 h
assay-endpoint: CC50

Asked: Field request: CC50 | item: CC[C@H](C)C(=O)O[C@H]1C[C@@H](C)C=C2C=C[C@H](C)[C@H](CC[C@@H]3C[C@@H](O)CC(=O)O3)[C@H]21
Given back: 43 µM

###

experiment: in vitro; conditions: rat, gh3-tre-luc cells, AC50 (uM) modified / 1000
Counter-ions that a name gives are not always drawn.
assay-endpoint: CC50 at 24 h

{"compound": "C/C=C/CC#N", "measured-value": "> 90 µM"}

Each compound below has a recorded value; state its CC50 at 24 h.
1. COc1ccccc1OCC(O)CN1CCN(CC(=O)Nc2c(C)cccc2C)CC1 (stereo not drawn)
2. O=c1[nH]c2ccccc2n1CCCN1CCC(n2c(=O)[nH]c3cc(Cl)ccc32)CC1
3. COc1ncnc(NS(=O)(=O)c2ccc(N)cc2)c1OC
4. COc1cc([C@H]2Oc3cc([C@H]4Oc5cc(O)cc(O)c5C(=O)[C@@H]4O)ccc3O[C@@H]2CO)ccc1O
5. CC(C)(C)NCC(O)CSc1nc(-c2ccc(C(N)=O)s2)cs1 (stereo not drawn) [Arotinolol hydrochloride]

Given back:
1: > 50 µM; 2: 40.2 µM; 3: > 50 µM; 4: > 90 µM; 5: > 50 µM

Please give CC50 at 24 h for each item listed below.
1. CC(C)CCCCCCOC(=O)C1CCCCC1C(=O)OCCCCCCC(C)C (stereo not drawn) [Diisononyl cyclohexane-1,2-dicarboxylate]
2. CN(C)CCCN1c2ccccc2Sc2ccc(C(F)(F)F)cc21 [Triflupromazine hydrochloride]
3. CC(C)OC(=O)c1ccccc1C(=O)OC(C)C [Diisopropyl phthalate]
4. CC(C)CN(C[C@@H](O)[C@H](Cc1ccccc1)NC(=O)O[C@H]1CCOC1)S(=O)(=O)c1ccc(N)cc1
5. COc1ccc(C(CN(C)C)C2(O)CCCCC2)cc1 (stereo not drawn) [Venlafaxine hydrochloride]
6. CCOC(=O)Nc1ccc2c(c1)N(C(=O)CCN1CCOCC1)c1ccccc1S2 [Moricizine hydrochloride]
7. C=CCOC(=O)c1ccccc1C(=O)OCC=C [Diallyl phthalate]
8. CC(=O)Nc1ccc(OCCOCCOc2ccc(NC(C)=O)cc2)cc1 [Diamfenetide]

Given back:
1: > 90 µM; 2: 9.02 µM; 3: > 90 µM; 4: > 50 µM; 5: > 90 µM; 6: > 20 µM; 7: > 90 µM; 8: > 50 µM

State the recorded CC50 at 24 h for every item in the following list.
1. O=C1C=CC(=O)O1
2. Nc1nc(CC(=O)O)cs1
3. CCNC1(c2cccs2)CCCCC1=O (stereo not drawn) [Tiletamine hydrochloride]
4. O=C1c2ccccc2C(=O)c2cc(S(=O)(=O)O)ccc21

Given back:
> 100 µM
> 90 µM
> 20 µM
> 90 µM
